So I've got a bunch of molecules here, and I need their ED50 at 120 min values.
- EXPERIMENTAL_SYSTEM: P-glycoprotein (P-gp) at the blood-brain barrier (Rattus norvegicus, UniProt Q6PSM0)
- Sequence (Q6PSM0 1-1272): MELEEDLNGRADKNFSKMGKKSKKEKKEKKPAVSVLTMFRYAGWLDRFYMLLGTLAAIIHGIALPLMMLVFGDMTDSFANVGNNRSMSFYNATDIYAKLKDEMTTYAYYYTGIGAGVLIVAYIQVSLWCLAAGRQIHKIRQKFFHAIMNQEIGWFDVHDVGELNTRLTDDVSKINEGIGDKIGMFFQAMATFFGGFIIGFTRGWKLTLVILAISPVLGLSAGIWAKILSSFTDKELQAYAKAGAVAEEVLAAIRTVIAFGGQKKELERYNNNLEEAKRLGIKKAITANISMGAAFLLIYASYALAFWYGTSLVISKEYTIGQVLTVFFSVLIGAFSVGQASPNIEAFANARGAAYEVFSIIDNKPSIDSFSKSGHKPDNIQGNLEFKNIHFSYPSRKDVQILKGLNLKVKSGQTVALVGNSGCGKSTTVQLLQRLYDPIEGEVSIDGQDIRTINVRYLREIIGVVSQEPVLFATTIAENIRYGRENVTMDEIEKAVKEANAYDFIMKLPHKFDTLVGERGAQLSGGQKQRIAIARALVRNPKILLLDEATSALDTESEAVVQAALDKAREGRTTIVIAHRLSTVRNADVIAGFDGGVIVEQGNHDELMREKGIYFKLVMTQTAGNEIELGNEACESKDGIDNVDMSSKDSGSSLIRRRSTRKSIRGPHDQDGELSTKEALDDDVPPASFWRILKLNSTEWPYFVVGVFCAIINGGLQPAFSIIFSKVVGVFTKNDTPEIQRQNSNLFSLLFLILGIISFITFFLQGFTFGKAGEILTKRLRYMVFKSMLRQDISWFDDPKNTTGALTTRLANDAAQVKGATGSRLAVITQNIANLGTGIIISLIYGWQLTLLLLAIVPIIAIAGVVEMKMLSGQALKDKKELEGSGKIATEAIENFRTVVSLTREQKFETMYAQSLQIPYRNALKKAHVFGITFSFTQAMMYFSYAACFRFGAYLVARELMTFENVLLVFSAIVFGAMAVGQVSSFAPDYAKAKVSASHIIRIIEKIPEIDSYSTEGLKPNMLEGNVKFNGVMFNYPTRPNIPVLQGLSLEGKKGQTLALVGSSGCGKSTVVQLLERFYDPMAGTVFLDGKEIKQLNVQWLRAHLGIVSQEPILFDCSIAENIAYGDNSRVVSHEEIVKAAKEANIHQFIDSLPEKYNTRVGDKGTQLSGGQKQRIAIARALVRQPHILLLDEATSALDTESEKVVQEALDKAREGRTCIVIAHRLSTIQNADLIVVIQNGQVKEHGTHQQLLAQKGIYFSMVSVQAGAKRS
- ASSAY_TEXT: in vivo
- CONDITION_INFO: Sprague-Dawley, iv
Structures can show the parent of a compound that is named as a salt.

>  <MOLECULE>
COc1cc2c(cc1OC)CN(CCc1ccc(NC(=O)c3cccc4c(=O)c5cccc(OC)c5[nH]c34)cc1)CC2 [elacridar, elacridar hydrochloride]

>  <ED50 at 120 min>
1.2 mg/kg

$$$$

Challenge: # query: ED50 at 120 min of entry COc1cc2c(cc1OC)CN(CCc1ccc(NC(=O)c3cc(OC)c(OC)cc3NC(=O)c3cnc4ccccc4c3)cc1)CC2 [tariquidar, Tariquidar dimesylate]
Response given: 3 mg/kg

----------
- ASSAY_TEXT: Tariquidar or elacridar concentrations in plasma and brain by LC/MS
- Assay type: in vivo
- CONDITION_INFO: rat, brain, iv, 3 mg/kg
QUANTITY: Kp at […]

Challenge: Which measured Kp at […] value corresponds to COc1cc2c(cc1OC)CN(CCc1ccc(NC(=O)c3cc(OC)c(OC)cc3NC(=O)c3cnc4ccccc4c3)cc1)CC2 [tariquidar, Tariquidar dimesylate] ?
Response given: 1

----------
Answer each item with its documented EC50 at 180 min.
- EXPERIMENTAL_SYSTEM: P-glycoprotein (P-gp) at the blood-brain barrier (Rattus norvegicus, UniProt Q6PSM0)
- ASSAY_TEXT: in vivo
Where a name gives a salt, the structure may show the parent alone.
One number for each entry, in µg/mL.

>  <COMPOUND>
COc1cc2c(cc1OC)CN(CCc1ccc(NC(=O)c3cc(OC)c(OC)cc3NC(=O)c3cnc4ccccc4c3)cc1)CC2 [tariquidar, Tariquidar dimesylate]

>  <EC50 at 180 min, µg/mL>
0.545

$$$$

Would you kindly look at the next entry?
Challenge: Record lookup: for P-glycoprotein (P-gp) at the blood-brain barrier (Rattus norvegicus, UniProt Q6PSM0), what EC50 at 180 min belongs to COc1cc2c(cc1OC)CN(CCc1ccc(NC(=O)c3cccc4c(=O)c5cccc(OC)c5[nH]c34)cc1)CC2 [elacridar, elacridar hydrochloride] ?
Response given: 0.115

----------
- ASSAY_TEXT: Tariquidar or elacridar concentrations in plasma and brain by LC/MS
- Format: in vivo
- CONDITION_INFO: rat, plasma, intravenous, 3 mg/kg
QUANTITY: concentration at 210 min (ng/mL)
Answers are plain numbers, in ng/mL.

Challenge: Endpoint output: concentration at 210 min of COc1cc2c(cc1OC)CN(CCc1ccc(NC(=O)c3cc(OC)c(OC)cc3NC(=O)c3cnc4ccccc4c3)cc1)CC2 [tariquidar, Tariquidar dimesylate] . Value?
Response given: 503

----------
- ASSAY_TEXT: Tariquidar or elacridar concentrations in plasma and brain by LC/MS
- Format: in vivo
- CONDITION_INFO: rat, brain, intravenous, 5 mg/kg
Where a name gives a salt, the structure may show the parent alone.
QUANTITY: concentration at 180 min (ng/mL)
Give bare numbers, in ng/mL.

Challenge: Quick one: concentration at 180 min for COc1cc2c(cc1OC)CN(CCc1ccc(NC(=O)c3cccc4c(=O)c5cccc(OC)c5[nH]c34)cc1)CC2 [elacridar, elacridar hydrochloride] ?
Response given: 5190
